- ASSAY EXPLANATION: Population PK model from satellite PK studies in hamster
- TEST PARAMETERS: hamster of the study's median weight (80-131 g)
REPORTED METRIC: KA, absorption rate constant, population estimate (%RSE)

Previously resolved entries follow.
[
  {
    "MOLECULE": "CC(C)/N=c1\\cc2n(-c3ccc(Cl)cc3)c3ccccc3nc-2cc1Nc1ccc(Cl)cc1",
    "RESULT": "0.38 (11.0) h-1"
  },
  {
    "MOLECULE": "CNCCC(Oc1ccc(C(F)(F)F)cc1)c1ccccc1 (stereo not drawn)",
    "RESULT": "5.34 (11.7) h-1"
  }
]

Quick one: KA, absorption rate constant, population estimate (%RSE) of CCN(CC)Cc1cc(Nc2ccnc3cc(Cl)ccc23)ccc1O ?
0.0784 (6.52%) h-1

Reference source for all entries: paper PMC9460261
